Test system: major CYP-P450s (1A2, 2C9, 2D6, 3A4, 2C8, 2C19)
Experiment: Multipoint cocktail DDI IC50 assay, major CYP-P450s
Format: in vitro ADME
Conditions: human, pooled human liver microsomes (HL-MIX-102), pH 7.4
pIC50: −log10 of the molar value.
measurementKind: pIC50

Cc1coc([C@H]2C[C@H]3[C@@H](C)SC(N)=N[C@@]3(c3ccc(F)cc3F)CO2)n1 [Compound 9]    < 4.52

Hey, can you go through the list below and give me pIC50 for every item?
1. Cc1cc([C@H]2C[C@H]3[C@@H](CF)SC(N)=N[C@@]3(c3ccc(F)cc3F)CO2)on1 [Compound 13]
2. Cn1cc([C@H]2C[C@H]3[C@@H](CF)SC(N)=N[C@@]3(c3ccc(F)cc3F)CO2)cn1 [Compound 14]

Reply text:
1: < 4.52; 2: < 4.52

The reported measurements were obtained from paper PMC4415909.
